List of Degradation assay (Degradation %) 1 μM values.
- target_or_system: MLKL (Homo sapiens, UniProt Q8NB16)
- experiment_description: MLKL degradation assay in HepG2 cell line (western blot)
- Assay type: cell-based
- Design: endogenous in cells; host or cells: HepG2 or HaCaT
- protocol_conditions: compound 1 μM; cell line not given
property_label: Degradation assay (Degradation %) 1 μM

compound: Nc1ncc(-c2cnn(C3CCN(CC4CCN(C(=O)CNc5ccc6c(c5)C(=O)N(C5CCC(=O)NC5=O)C6=O)CC4)CC3)c2)nc1C(=O)O[C@@H](C(=O)Nc1ccc(F)cc1)c1ccccc1 (stereo partly drawn)
measured_number: 54.49

compound: Nc1ncc(-c2cnn(C3CCN(CCOC4CCN(C(=O)C5CCN(C6=CC(=O)N(C7CCC(=O)NC7=O)C6=O)CC5)CC4)CC3)c2)nc1C(=O)O[C@@H](C(=O)Nc1ccc(F)cc1)c1ccccc1 (stereo partly drawn)
measured_number: 24.89

compound: Nc1ncc(-c2cnn(C3CCN(CC4CCN(C(=O)COc5ccc6c(c5)C(=O)N(C5CCC(=O)NC5=O)C6=O)CC4)CC3)c2)nc1C(=O)N[C@@H](C(=O)Nc1ccc(F)cc1)c1ccccc1 (stereo partly drawn)
measured_number: 27.67

compound: Nc1ncc(-c2cnn(C3CCN(C[C@H]4CC[C@H](CNC(=O)Cc5cccc(NC6=CC(=O)N(C7CCC(=O)NC7=O)C6=O)c5)CC4)CC3)c2)nc1C(=O)O[C@@H](C(=O)Nc1ccc(F)cc1)c1ccccc1 (stereo partly drawn)
measured_number: 86.68

compound: Nc1ncc(-c2cnn(C3CCN(CCOCCOCCOCCNc4ccc5c(c4)C(=O)N(C4CCC(=O)NC4=O)C5=O)CC3)c2)nc1C(=O)O[C@@H](C(=O)Nc1ccc(F)cc1)c1ccccc1 (stereo partly drawn)
measured_number: 25.56

compound: Nc1ncc(-c2cnn(C3CCN(CCCN4CCN(CC5CCN(c6ccc7c(c6)C(=O)N(C6CCC(=O)NC6=O)C7=O)CC5)CC4)CC3)c2)nc1C(=O)O[C@@H](C(=O)Nc1ccc(F)cc1)c1ccccc1 (stereo partly drawn)
measured_number: 54.33

====

- target_or_system: MLKL (Homo sapiens)
- Sequence (Q8NB16 1-471): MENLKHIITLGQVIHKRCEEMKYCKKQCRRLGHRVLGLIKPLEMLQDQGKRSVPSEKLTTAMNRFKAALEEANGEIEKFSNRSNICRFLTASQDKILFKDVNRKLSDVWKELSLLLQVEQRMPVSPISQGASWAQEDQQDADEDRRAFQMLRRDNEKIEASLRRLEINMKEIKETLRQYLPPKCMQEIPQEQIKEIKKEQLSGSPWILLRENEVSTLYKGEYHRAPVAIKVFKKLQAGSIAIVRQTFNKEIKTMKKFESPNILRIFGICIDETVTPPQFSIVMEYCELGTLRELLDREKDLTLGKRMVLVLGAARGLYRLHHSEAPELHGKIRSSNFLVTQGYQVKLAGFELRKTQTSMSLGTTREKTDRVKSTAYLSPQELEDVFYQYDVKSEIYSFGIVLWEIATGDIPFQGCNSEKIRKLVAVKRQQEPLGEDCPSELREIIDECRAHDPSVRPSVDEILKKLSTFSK
- experiment_description: MLKL degradation assay in HepG2 cell line (western blot)
- Assay type: cell-based
- Parameters: endogenous in cells; host or cells: HepG2 or HaCaT
- protocol_conditions: compound 10 μM; cell line not given

molecule: Nc1ncc(-c2cnn(C3CCN(CCCN4CCN(C(=O)COc5ccc6c(c5)C(=O)N(C5CCC(=O)NC5=O)C6=O)CC4)CC3)c2)nc1C(=O)N[C@@H](C(=O)Nc1ccc(F)cc1)c1ccccc1 (stereo partly shown)
target_or_system: MLKL (Homo sapiens)
measurement_units: %
Degradation assay (Degradation %) 10 μM: 14.89
//
molecule: Nc1ncc(-c2cnn(C3CCN(C4CC5(CCN(CC6CCN(C(=O)C7CCN(C8=CC(=O)N(C9CCC(=O)NC9=O)C8=O)CC7)CC6)CC5)C4)CC3)c2)nc1C(=O)O[C@@H](C(=O)Nc1ccc(F)cc1)c1ccccc1 (stereo partly shown)
target_or_system: MLKL (Homo sapiens)
measurement_units: %
Degradation assay (Degradation %) 10 μM: 56.11
//
molecule: Nc1ncc(-c2cnn([C@H]3CCN(CCOCCOCCNC(=O)CNc4cccc5c4C(=O)N(C4CCC(=O)NC4=O)C5=O)C3)c2)nc1C(=O)OC(C(=O)Nc1ccc(F)cc1)c1ccccc1 (stereo partly shown)
target_or_system: MLKL (Homo sapiens)
measurement_units: %
Degradation assay (Degradation %) 10 μM: 71.82
//
molecule: Nc1ncc(-c2cnn(C3CCN(C(=O)COCCOCCNC(=O)CNc4ccc5c(c4)C(=O)N(C4CCC(=O)NC4=O)C5=O)CC3)c2)nc1C(=O)O[C@@H](C(=O)Nc1ccc(F)cc1)c1ccccc1 (stereo partly shown)
target_or_system: MLKL (Homo sapiens)
measurement_units: %
Degradation assay (Degradation %) 10 μM: 5.25
//
molecule: Nc1ncc(-c2cnn(C3CCN(C[C@H]4CC[C@H](CNC(=O)COc5cccc6c5C(=O)N(C5CCC(=O)NC5=O)C6=O)CC4)CC3)c2)nc1C(=O)O[C@@H](C(=O)Nc1ccc(F)cc1)c1ccccc1 (stereo partly shown)
target_or_system: MLKL (Homo sapiens)
measurement_units: %
Degradation assay (Degradation %) 10 μM: 80.66
//
molecule: Nc1ncc(-c2cnn(C3CCN(C(=O)C4CCN(C(=O)CNc5cccc6nnn(C7CCC(=O)NC7=O)c(=O)c56)CC4)CC3)c2)nc1C(=O)O[C@@H](C(=O)Nc1ccc(F)cc1)c1ccccc1 (stereo partly shown)
target_or_system: MLKL (Homo sapiens)
measurement_units: %
Degradation assay (Degradation %) 10 μM: 57.83
//
molecule: COc1ccc(C(=O)N2CCC(CN3CCC(CCN4CCC(n5cc(-c6cnc(N)c(C(=O)O[C@@H](C(=O)Nc7ccc(F)cc7)c7ccccc7)n6)cn5)CC4)CC3)CC2)cc1N1CCC(=O)NC1=O
target_or_system: MLKL (Homo sapiens)
measurement_units: %
Degradation assay (Degradation %) 10 μM: 94.63
